Sourced from PubChem BioAssay (NCATS)

Molecular target: Cytochrome P450 3A4 (Homo sapiens)
Assay: qHTS Assay for Inhibitors and Substrates of Cytochrome P450 3A4 (AID 884); also: nearly all actives have a fitted effect of over 50% in size
Settings: recombinant CYP3A4, Luciferin-PPXE luminescence; series mostly up to 57.1 µM
Results filed as inconclusive are left out. Active and inactive are the calls of the source. Calls follow the shape of the dose curve; as a rule, active = well fitted inhibition curve with a large enough effect; inconclusive = small, poorly fitted or top-dose-only effect; inactive = no such curve, though single readings can be large or run the other way. Bridge positions count the residues as written; N and C are the ends. Square brackets hold non-standard residues; d marks the D form. Peptide text beside a SMILES is read from it. * marks the point of attachment. Octanoyl(6-Me) = CCC(C)CCCCC(=O)*; Dab = NCC[CH](N)C(=O)O
Outcome codes: t (active), f (inactive)

MOLECULE: CC1=C2[C@H](/C=C(\C)C(=O)O)CC[C@@H](C)[C@H]2CC1
CLASS: f

MOLECULE: CCNc1ncc2nc(-c3cccs3)c(=O)n(CCC#N)c2n1
CLASS: t

MOLECULE: CCC(C)CCCCC(=O)NC(CCN)C(=O)NC(C(=O)NC(CCN)C(=O)NC1CCNC(=O)C(C(C)O)NC(=O)C(CCN)NC(=O)C(CCN)NC(=O)C(CC(C)C)NC(=O)C(Cc2ccccc2)NC(=O)C(CCN)NC1=O)C(C)O (centres undefined) ({Octanoyl(6-Me)}-[Dab]T[Dab][Dab][Dab]FL[Dab][Dab]T; lactam 4-C; configuration not given here)
CLASS: f

MOLECULE: CC(C)Cn1c(N)c(C(=O)COC(=O)c2cc(-c3ccco3)nc3ccccc23)c(=O)n(C)c1=O
CLASS: t

MOLECULE: Cc1ccccc1-c1ccc2ncnc(N3CCOCC3)c2c1
CLASS: f

MOLECULE: c1ccc2c(c1)[nH]c1ccccc12
CLASS: f

MOLECULE: COc1cccc(-c2cncnc2NCc2ccccc2OC)c1
CLASS: t

MOLECULE: C=CCc1ccc(OC)c(OC)c1
CLASS: f

MOLECULE: CCCCOCCO
CLASS: f
